- assayRemarks: yeast display, Sf9 membrane polyspecificity reagent, FACS + sequencing; frameworks hold sequencing errors
reportedMetric: polyreactivity (PSR sort gate)

Worked examples follow.
QVQLVESGGGLVQAGGSLRLSCAASGIIFAWYAMGWYRQAPGKERELVAAISWSGGSTYYADSVKGRFTISRDNAKNTVYLQMNSLKPEDTAVYYCAADSDYGGYDYWGQGTQVTVSS ... high polyreactivity
QVQLVESGGGLVQAGGSLRLSCAASGFIFSYYAMGWYRQAPGKERELVAAITVRGGSTYYADSVKGRFTISRDNAKNTVYLQRNCLKPEDTAVYYCNTVHGLWRRYNYWGQGTQVTVSS ... high polyreactivity
QVQLQESGGRLVQAGGSLRLSCAATGTIFTERFMGWYRQAPGKERELVAVISPGTSTNYADSVKGRFTISRDNAKNTVYLQMNSLKPEDTAVYYCAADWSTGNTLPYWGQGTQVTVSS ... high polyreactivity
QVQLQESCGGLVQAGGSLRLSCAASGTIFRFRYMAWHRQAPGKERELVAGINGGTTTYYADSVIGLFTISRDNAKNTVYLQMNSLKPDDTAVYNCAAGASRLTYYDYWGQGTQVTVIS ... low polyreactivity
QVQLVESGGGLVQAGGSLRLSCAASGSTFSGYAMGGYRQAPGKERELVAAISSSGGSTSYADSVKGRFTISRDNAKNTVYLQMNSLKPEDTAVYYCAARAKGYAHIRAYDYWGQGTQVTVSS ... low polyreactivity
QVQLVESGGGLVQAGGSLRLSCAASGNTFYVNVMGWYRHAPGKEREFVAAISTRGVSTSYADSVKGRFTISRDYAKNTVYLQMNRLKPEDTAVYYCAKRFLPPGRAVTYDYWGQGTQVTVSS ... high polyreactivity
QVQLVESGGGLVQAGGSLRLSCAASGSIFNHYAMGWYRQAPGKERELVAAISGSGGSTYYADSVKGRFTISRDNAQNTVYLQMYSLKPEDTAVYYCAARILRHWVSAEYYWGQGTQVTVSS ... low polyreactivity
QVQLVESGGGLVQAGGSLRLSCAASGRIFDFYAMGWYRQAPGKERELVAAISWDGSDTYYADSVKGRFTISRDNAKNTVYLQMNSLKPEDTAVYYCAADYYSPSGQEYNYWGQGTQVTVSS ... high polyreactivity

Could you tell me which polyreactivity (PSR sort gate) is on file for "QVQLVESGGGLVQAGGSLRLSCAASGSIFRVYAMGRYRQAPGKEREFVAAISYSTGSTYADSVKGRFTISRDNAKNTVYLQMNSLKPEDTAVYYCNARLRYGSRDEYDYWGQGTQVTVSS" ?
low polyreactivity

Could you tell me which polyreactivity (PSR sort gate) is on file for "QVQLVESGGGLVQAGGSLRLSCAASGSIFRINDMGWSRQAPGKERELVAAITFSGGSTYADSVKGRFTISRDNAKNTVYLQMNSLKPEDTAVYYCNADGAYWTDYYLYDYWGQGTQVTVSS" ?
low polyreactivity
